# pest or weed control at 280.212 g/ha per entry
System: barnyardgrass
Assay: Preemergent control of plant species
Type: in vivo, Echinochloa crusgalli
Details: Echinochloa crus-galli, pre-emergence, 336 h; 0.25 lb/acre; read-out: percent preemergent control
Could you give me the number in %? Just the number is fine.

Input line: Endpoint output: pest or weed control at 280.212 g/ha of CCCC(=O)N(c1c(F)cccc1F)S(=O)(=O)c1nc2nc(C)ccn2n1 [Compound 283] . Value?
Output line: 100

Input line: Again, but for C=CCOC(=O)c1cccc(C)c1NS(=O)(=O)c1nc2nc(C)cc(C)n2n1 [Compound 76]
Output line: 70

Input line: Again, but for Cc1cc(C)n2nc(S(=O)(=O)Nc3cccc(Cl)c3Cl)nc2n1 [Compound 19]
Output line: 0

Input line: Again, but for Cc1cnc2nc(S(=O)(=O)Nc3c(Cl)cccc3Cl)nn2c1 [Compound 192]
Output line: 0

Next:
Input line: Endpoint output: pest or weed control at 280.212 g/ha of Cc1ccc(F)c(NS(=O)(=O)c2nc3nccc(C)n3n2)c1F [Compound 190] . Value?
Output line: 30

Input line: Again, but for COc1ccn2nc(S(=O)(=O)Nc3c(Cl)cccc3Cl)nc2n1 [Compound 208]
Output line: 0

Input line: Again, but for CCCCC(=O)N(c1c(F)cccc1F)S(=O)(=O)c1nc2nc(C)ccn2n1 [Compound 279]
Output line: 100

Input line: Again, but for COC(=O)c1cccc(F)c1NS(=O)(=O)c1nc2nc(C)cc(C)n2n1 [Compound 26]
Output line: 98

Input line: Again, but for COc1nc2nc(S(=O)(=O)Nc3ccccc3C(F)(F)F)nn2cc1C [Compound 217]
Output line: 90
